experiment: LTEA_HepaRG_LDH_cytotoxicity: Cytotoxicity Assessment in the Life Technologies and Expression Analysis (LTEA) Assay (AID 2283563)
Active and inactive are the calls of the source. Rule for the calls: active = hit-call score of the fitted dose curve at least 0.9, where 1 is the maximum; inconclusive = response in the unintended direction; inactive = score below 0.9.
Classes used: y for active, n for inactive

Compound | Class Assignment
CCCCOC(=O)[C@@H](C)Oc1ccc(Oc2ccc(C(F)(F)F)cn2)cc1 | n
Cc1nn(C)c(Oc2ccccc2)c1C=NOCc1ccc(C(=O)OC(C)(C)C)cc1 | y
C[C@]12CC[C@@H]3c4ccc(O)cc4C[C@@H](CCCCCCCCCS(=O)CCCC(F)(F)C(F)(F)F)[C@H]3[C@@H]1CC[C@@H]2O (some centres undefined) | n
N#CSCSc1nc2ccccc2s1 | y
CCC(C)OC(=O)N1CCCCC1CCO (centres undefined) | n
Oc1ccc(C(c2ccc(O)cc2)C(Cl)(Cl)Cl)cc1 | y
COCCO | n
C[C@]12C[C@H](O)[C@H]3[C@@H](CCC4=CC(=O)CC[C@@]43C)[C@@H]1CC[C@@H]2C(=O)CO | n
CSC(=O)c1cccc2nnsc12 | n
